- assay.target: chimeric 0401-IE class II molecule on cells of transgenic mice (human/murine chimera)
- assay.notes: cell-based or functional assay
measured.property: IC50 of inhibition of IL-2 secretion from T-Hyb 1 cells (nM)
Please reply with the bare figure in nM and do not write the unit itself.

Query string: Given MS-GPC-8-6-2 IgG (antibody, V domains shown) VH: QVQLKESGPALVKPTQTLTLTCTFSGFSLSTSGVGVGWIRQPPGKALEWLALIDWDDDKYYSTSLKTRLTISKDTSKNQVVLTMTNMDPVDTATYYCARSPRYRGAFDYWGQGTLVTVSS VL: DIVLTQPPSVSGAPGQRVTISCSGSESNIGSNYVHWYQQLPGTAPKLLIYDNNQRPSGVPDRFSGSKSGTSASLAITGLQSEDEADYYCQSYDYDHYVFGGGTKLTVLG , state its recorded IC50 of inhibition of IL-2 secretion from T-Hyb 1 cells.
Result string: 3.6

Query string: And the next one, MS-GPC-8-6-13 IgG4 (antibody, V domains shown, human IgG4 (constant region EMBL K01316) with lambda constant region (EMBL M18645), from CHO-K1 cells; also called 305D3; IgG form of MS-GPC-8-6-13) VH: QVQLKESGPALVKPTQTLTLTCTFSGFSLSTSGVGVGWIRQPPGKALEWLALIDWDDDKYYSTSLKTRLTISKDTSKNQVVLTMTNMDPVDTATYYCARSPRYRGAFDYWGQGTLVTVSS VL: DIVLTQPPSVSGAPGQRVTISCSGSESNIGANYVTWYQQLPGTAPKLLIYDNNQRPSGVPDRFSGSKSGTSASLAITGLQSEDEADYYCQSYDYDHYVFGGGTKLTVLG ?
Result string: 0.42
